Overview of recorded CTG-3D luminescence at 96 h for various compounds
- Test system: HCI-002 (organoid from a triple-negative breast cancer xenograft)
- assay-notes: CTG-3D luminescence at 96 h relative to day-0 seeding control (ratio to day 0); higher = more growth / less cytotoxicity; PDxO 3D drug screen, 96 h, CTG-3D normalised to day-0 seeding control.
- condition-context: 0.00025 µM; days in culture: 91

Previously resolved entries follow.
Query: Could you tell me which CTG-3D luminescence at 96 h is on file for `Nc1ccn([C@@H]2O[C@H](CO)[C@@H](O)C2(F)F)c(=O)n1` ?
Reply: 3.02

Query: Look up CTG-3D luminescence at 96 h: `C/C=C1\NC(=O)[C@H]2CSSCC/C=C/[C@H](CC(=O)N[C@H](C(C)C)C(=O)N2)OC(=O)[C@H](C(C)C)NC1=O`
Reply: 2.73

More entries:
Query: Would you mind telling me what CTG-3D luminescence at 96 h value was observed for `COc1cc2c(Oc3ccc4[nH]c(C)cc4c3F)ncnc2cc1OCCCN1CCCC1` ?
Reply: 3.53
